The reader will find Ki measurements below, all made with Cannabinoid receptor 1 (Homo sapiens, UniProt P21554).
Sequence (P21554 whole entry): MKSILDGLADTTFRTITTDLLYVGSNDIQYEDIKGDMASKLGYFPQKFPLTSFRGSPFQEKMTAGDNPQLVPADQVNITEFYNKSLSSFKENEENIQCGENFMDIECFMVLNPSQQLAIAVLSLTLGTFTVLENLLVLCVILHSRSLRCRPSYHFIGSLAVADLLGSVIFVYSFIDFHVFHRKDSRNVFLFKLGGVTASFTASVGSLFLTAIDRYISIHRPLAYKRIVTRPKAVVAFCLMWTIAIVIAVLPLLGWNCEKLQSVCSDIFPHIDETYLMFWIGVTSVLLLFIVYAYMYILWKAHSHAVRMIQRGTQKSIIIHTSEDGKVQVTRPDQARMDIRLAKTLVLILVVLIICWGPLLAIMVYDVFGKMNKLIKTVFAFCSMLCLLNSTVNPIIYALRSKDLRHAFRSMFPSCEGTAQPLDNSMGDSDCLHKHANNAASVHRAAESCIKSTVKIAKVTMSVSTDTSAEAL

Example cases with answers are listed next.
Given the molecule `CCOc1ccc(Cc2nc3cc(C(=O)N(CC)CC)ccc3n2Cc2ccco2)cc1` , write its reported Ki.
> 5 µM

Given the molecule `CCOc1ccc(Cc2nc3cc(N(C)C(=O)c4cccs4)ccc3n2CC2CC2)cc1` , write its reported Ki.
2.48 µM

---
Given the molecule `CCN(CC)C(=O)c1ccc2c(c1)nc(Cc1ccc(OCC(F)(F)F)cc1)n2CCC(C)C` , write its reported Ki.
> 5 µM

###

# STUDY TARGET: Cannabinoid receptor 2 (Homo sapiens)
# Sequence (P34972 whole entry): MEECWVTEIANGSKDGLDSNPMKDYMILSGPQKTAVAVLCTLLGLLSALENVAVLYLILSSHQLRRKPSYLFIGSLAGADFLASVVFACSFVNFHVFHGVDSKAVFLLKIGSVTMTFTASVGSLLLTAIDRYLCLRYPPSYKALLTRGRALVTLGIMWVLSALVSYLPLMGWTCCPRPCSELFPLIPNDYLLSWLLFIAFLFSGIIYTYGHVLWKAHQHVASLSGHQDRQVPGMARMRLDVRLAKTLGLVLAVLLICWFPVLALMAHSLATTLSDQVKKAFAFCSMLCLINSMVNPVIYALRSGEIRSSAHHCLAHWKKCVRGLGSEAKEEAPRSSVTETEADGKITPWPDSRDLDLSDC
# EXPERIMENTAL DETAILS: Agonist activity at cloned human CB2 receptor in Sf9 cells assessed as stimulation of [35S]GTPgammaS binding assay
With a cut-off of 5 nM, any EC50 strictly below it is called Y; any EC50 meeting it or above is called N.

Recorded results for 4 compounds are shown here.
Lab note: confirm whether the reported EC50 for this compound is below 5 nM, equality not counting. compound: `CCOc1ccc(Cc2nc3cc(C(=O)N(CC)CC)ccc3n2CC2CCOCC2)cc1`
Y

Lab note: confirm whether the reported EC50 for this compound is below 5 nM, equality not counting. compound: `CCOc1ccc(Cc2nc3cc(C(=O)N(CC)CC)ccc3n2CC2CC2)nc1`
N

Lab note: confirm whether the reported EC50 for this compound is below 5 nM, equality not counting. compound: `CCOc1ccc(Cc2nc3cc(C(=O)N4CCCC4)ccc3n2CC2CC2)cc1`
N

Lab note: confirm whether the reported EC50 for this compound is below 5 nM, equality not counting. compound: `CCOc1ccc(Cc2nc3cc(C(=O)N(C)C4CCCCC4)ccc3n2CC2CC2)cc1`
Y

---
Lab note: confirm whether the reported EC50 for this compound is below 5 nM, equality not counting. compound: `CCCN(CCC)C(=O)c1ccc2c(c1)nc(Cc1ccc(OCC)cc1)n2CC1CC1`
Y

Lab note: confirm whether the reported EC50 for this compound is below 5 nM, equality not counting. compound: `CCOc1ccc(Cc2nc3cc(N(C)C(=O)N(CC)CC)ccc3n2CC2CC2)cc1`
Y

Lab note: confirm whether the reported EC50 for this compound is below 5 nM, equality not counting. compound: `CCOc1ccc(Cc2nc3cc(C(=O)N(CC(F)(F)F)CC(F)(F)F)ccc3n2CC2CC2)cc1`
Y

Lab note: confirm whether the reported EC50 for this compound is below 5 nM, equality not counting. compound: `CCOc1ccc(Cc2nc3cc(N(C)C(=O)N(C)C)ccc3n2CC2CC2)cc1`
N

Lab note: confirm whether the reported EC50 for this compound is below 5 nM, equality not counting. compound: `CCOc1ccc(Cc2nc3cc(C(=O)N(CC)CC)ccc3n2CC2CCCCC2)cc1`
Y

Lab note: confirm whether the reported EC50 for this compound is below 5 nM, equality not counting. compound: `CCOc1ccc(Cc2nc3cc(C(=O)N4CCCCC4)ccc3n2CC2CC2)cc1`
Y

Lab note: confirm whether the reported EC50 for this compound is below 5 nM, equality not counting. compound: `CCOc1ccc(Cc2nc3cc(C(=O)N(CC)CC)ccc3n2C[C@H]2CCCO2)cc1`
N

Lab note: confirm whether the reported EC50 for this compound is below 5 nM, equality not counting. compound: `CCCN(C)C(=O)c1ccc2c(c1)nc(Cc1ccc(OCC)cc1)n2CC1CC1`
Y

Lab note: confirm whether the reported EC50 for this compound is below 5 nM, equality not counting. compound: `CCN(CC)C(=O)c1ccc2c(c1)nc(Cc1ccc(OC3CCCC3)cc1)n2CCC(C)C`
N

Lab note: confirm whether the reported EC50 for this compound is below 5 nM, equality not counting. compound: `CCN(CC)C(=O)c1ccc2c(c1)nc(Cc1ccc(OCC(F)(F)F)cc1)n2CCC(C)C`
N

Lab note: confirm whether the reported EC50 for this compound is below 5 nM, equality not counting. compound: `CCN(CC)C(=O)c1ccc2c(c1)nc(Cc1ccc(OCC3CC3)cc1)n2CCC(C)C`
N
